System: Delayed-type hypersensitivity rat paw oedema
Assay: Test 3: Delayed-type hypersensitivity rat paw oedema (DTH-R)
Settings: Rattus norvegicus, po, 24 h, read-out: % Inhibition (Test 3, DTH-R)
Consider the following molecules; for each one, report its inhibition in vivo at 50 mg/kg.
Numeric only. Scale: %

**Query** Using the record for Cc1cc(NC(=O)c2c(C(=O)O)noc2C2CC2)ccc1C(F)(F)F [Example 10] , state its measured inhibition in vivo at 50 mg/kg.
**Result** 73

**Query** Please supply the value of reported inhibition in vivo at 50 mg/kg for the item CCOC(=O)c1noc(C)c1C(=O)Nc1ccc(C(F)(F)F)c(C)c1 [Example 18]
**Result** 50

**Query** Give inhibition in vivo at 50 mg/kg for Cc1onc(C(=O)O)c1C(=O)Nc1ccc(C#N)cc1 [Example 2]
**Result** -47

**Query** For the molecule Cc1cc(NC(=O)c2c(C(=O)O)noc2C)ccc1Br [Example 3] , report inhibition in vivo at 50 mg/kg.
**Result** -4

**Query** Identify inhibition in vivo at 50 mg/kg associated with the molecule Cc1cc(NC(=O)c2c(C(=O)O)noc2C)ccc1Cl [Example 4]
**Result** 6

**Query** Identify measured inhibition in vivo at 50 mg/kg associated with Cc1cc(NC(=O)c2c(C(=O)O)noc2C)ccc1C(F)(F)F [Example 5]
**Result** 95

**Query** Using the record for Cc1cc(NC(=O)c2c(C(=O)O)noc2C)ccc1OC(F)(F)F [Example 8] , state its measured inhibition in vivo at 50 mg/kg.
**Result** 79

**Query** Return reported inhibition in vivo at 50 mg/kg. Input molecule: Cc1onc(C(=O)O)c1C(=O)Nc1ccc([N+](=O)[O-])cc1 [Example 1]
**Result** 28

**Query** Tell me measured inhibition in vivo at 50 mg/kg for Cc1cc(NC(=O)c2c(C(=O)O)noc2C)ccc1C#N [Example 6] please.
**Result** 25

**Query** // Input: Cc1onc(C(=O)O)c1C(=O)Nc1ccc(SC(F)(F)F)cc1 [Example 7] . Output its inhibition in vivo at 50 mg/kg only.
**Result** 73

**Query** Return the recorded inhibition in vivo at 50 mg/kg value; entry: O=C(O)c1noc(C2CC2)c1C(=O)Nc1ccc(C(F)(F)F)cc1 [Example 9]
**Result** 86

* * *

Tested on: Carrageenan rat paw oedema
Experiment: Test 1: Carrageenan rat paw oedema (PO-R)
Format: in vivo, rat (male CFHB)
Settings: 3 h, 50 mg/kg p.o.
Would you kindly list inhibition in vivo at 50 mg/kg for each of these compounds?
# unit: % | format: bare number

**Query** Look up Carrageenan rat paw oedema data: inhibition in vivo at 50 mg/kg of Cc1cc(NC(=O)c2c(C(=O)O)noc2C)ccc1Br , then report it.
**Result** -10

**Query** # lookup: Carrageenan rat paw oedema inhibition in vivo at 50 mg/kg, key = Cc1onc(C(=O)O)c1C(=O)Nc1ccc(C#N)cc1
**Result** -25

**Query** Lab note: record inhibition in vivo at 50 mg/kg of Cc1onc(C(=O)O)c1C(=O)Nc1ccc(SC(F)(F)F)cc1 tested on Carrageenan rat paw oedema.
**Result** 1

**Query** Lab note: Carrageenan rat paw oedema assay, enter inhibition in vivo at 50 mg/kg for CCOC(=O)c1noc(C)c1C(=O)Nc1ccc(C(F)(F)F)c(C)c1 here
**Result** 23

**Query** # lookup: Carrageenan rat paw oedema inhibition in vivo at 50 mg/kg, key = Cc1cc(NC(=O)c2c(C(=O)O)noc2C)ccc1C(F)(F)F
**Result** 18

**Query** Send back Carrageenan rat paw oedema inhibition in vivo at 50 mg/kg of Cc1onc(C(=O)O)c1C(=O)Nc1ccc([N+](=O)[O-])cc1 only.
**Result** -2

**Query** Lab note: Carrageenan rat paw oedema assay, enter inhibition in vivo at 50 mg/kg for Cc1cc(NC(=O)c2c(C(=O)O)noc2C)ccc1C#N here
**Result** 5

**Query** Please respond with reported inhibition in vivo at 50 mg/kg (system Carrageenan rat paw oedema) for Cc1cc(NC(=O)c2c(C(=O)O)noc2C2CC2)ccc1C(F)(F)F .
**Result** 5

**Query** # assay system Carrageenan rat paw oedema: give inhibition in vivo at 50 mg/kg of Cc1cc(NC(=O)c2c(C(=O)O)noc2C)ccc1Cl
**Result** -10
